B1: TPR t1 (parent)
chain: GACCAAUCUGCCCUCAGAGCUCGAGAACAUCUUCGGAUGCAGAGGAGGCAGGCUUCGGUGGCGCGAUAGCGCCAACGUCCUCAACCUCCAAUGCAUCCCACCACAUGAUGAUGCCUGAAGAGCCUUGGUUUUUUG

- Variants of: B1
- Test summary: polymerase ribozyme fitness, log enrichment relative to wild type (log ratio); higher = more active; in vitro selection for triplet polymerase activity
Property: polymerase ribozyme fitness (log ratio)

The reported polymerase ribozyme fitness (log ratio) of the variant A2C C13G G93U G120U was -2.23

The reported polymerase ribozyme fitness (log ratio) of the variant C40A A46G U55A C99U G120A was -4.32

The reported polymerase ribozyme fitness (log ratio) of the variant C8U C13U A43G was -1.25

The reported polymerase ribozyme fitness (log ratio) of the variant U92A U130G U131G was -5.8

The reported polymerase ribozyme fitness (log ratio) of the variant U7G G17U A27C C53U C56A was -4.57

The reported polymerase ribozyme fitness (log ratio) of the variant C11U C15G G36C was -7.38

The reported polymerase ribozyme fitness (log ratio) of the variant U87C G117A was -1.27

The reported polymerase ribozyme fitness (log ratio) of the variant G69C U78A was -2.44

The reported polymerase ribozyme fitness (log ratio) of the variant C13G G48A C56A C73A was -3.11

The reported polymerase ribozyme fitness (log ratio) of the variant A41U U133G was -1.49

The reported polymerase ribozyme fitness (log ratio) of the variant U9G G10U C104A was -1.09

The reported polymerase ribozyme fitness (log ratio) of the variant C12U A83C G93A was -0.192

The reported polymerase ribozyme fitness (log ratio) of the variant G51A C72U C82U A83G C94U U126A was -2.93

The reported polymerase ribozyme fitness (log ratio) of the variant G39A G110C was -4.65

The reported polymerase ribozyme fitness (log ratio) of the variant G45U C64U A121G G135A was 0.974

The reported polymerase ribozyme fitness (log ratio) of the variant G63C C80U G110A was -2.48

The reported polymerase ribozyme fitness (log ratio) of the variant A43U U92G was -1.81

The reported polymerase ribozyme fitness (log ratio) of the variant C8G A46G G107A was -4.69

The reported polymerase ribozyme fitness (log ratio) of the variant A43C C56U C94A G117A was -5.97

The reported polymerase ribozyme fitness (log ratio) of the variant G36U C88G A91U was -6.86

The reported polymerase ribozyme fitness (log ratio) of the variant U9C A41C C53G A68G C73U was -5.47

The reported polymerase ribozyme fitness (log ratio) of the variant C56U A83C U106A A118U C123G was 1.63

The reported polymerase ribozyme fitness (log ratio) of the variant G39C G65U was -6.02

The reported polymerase ribozyme fitness (log ratio) of the variant A5U A68G C82G was -3.79

The reported polymerase ribozyme fitness (log ratio) of the variant C13A A121C G128C was -1.87

The reported polymerase ribozyme fitness (log ratio) of the variant C20A G117A was -3.21

The reported polymerase ribozyme fitness (log ratio) of the variant C31U C123G G127A was -4.45

The reported polymerase ribozyme fitness (log ratio) of the variant A108U was -4.97

The reported polymerase ribozyme fitness (log ratio) of the variant A16U G117A was -2.22

The reported polymerase ribozyme fitness (log ratio) of the variant C15G G48U A50G G63C U106A U109C was -6.17

The reported polymerase ribozyme fitness (log ratio) of the variant U54C C86G C88A C101U U129C was -3.66

The reported polymerase ribozyme fitness (log ratio) of the variant C11G G42U C124U was 0.5

The reported polymerase ribozyme fitness (log ratio) of the variant G19U G39U G48A A111G was -4.12

The reported polymerase ribozyme fitness (log ratio) of the variant C40G C124A was 1.16

The reported polymerase ribozyme fitness (log ratio) of the variant G10A A24C A29G C34U G44A C53U C98U A111U was -7.41

The reported polymerase ribozyme fitness (log ratio) of the variant G42U A121C was 0.464

The reported polymerase ribozyme fitness (log ratio) of the variant A90U A103U U106C was -5.93

The reported polymerase ribozyme fitness (log ratio) of the variant C56U C124A was 1.7

The reported polymerase ribozyme fitness (log ratio) of the variant U55C G58A U92C was -0.821

The reported polymerase ribozyme fitness (log ratio) of the variant G69U C114G was -0.996

The reported polymerase ribozyme fitness (log ratio) of the variant A74U G77U C98U C102G was -6.8

The reported polymerase ribozyme fitness (log ratio) of the variant U21C C62U A84C was -0.909

The reported polymerase ribozyme fitness (log ratio) of the variant C28A C70U was -4.86

The reported polymerase ribozyme fitness (log ratio) of the variant C34G C73U was -5.17

The reported polymerase ribozyme fitness (log ratio) of the variant C22U C53A C72U C98U C123U was -4.73

The reported polymerase ribozyme fitness (log ratio) of the variant G61A G93A C97A G120U U133C was -6.04
